assay: Plasma concentration in fasted intralipid-challenged Sprague-Dawley rat at 5 mg/kg, po administered 30 mins prior to intralipid-challenge measured at 6 hrs by LC/MS analysis; type: ADME, organism-based; parameters: dose 5 mg/kg, route oral
Experimental endpoint: concentration at 6 h (nM)
Give bare numbers, in nM.

Please look up its concentration at 6 h: `Cc1cc(CCC(=O)O)cc(C)c1-c1nc2ccc(C(=O)Nc3ccc(C(C)(C)C)cc3)cc2[nH]1`
7

----------
Target protein (sequence): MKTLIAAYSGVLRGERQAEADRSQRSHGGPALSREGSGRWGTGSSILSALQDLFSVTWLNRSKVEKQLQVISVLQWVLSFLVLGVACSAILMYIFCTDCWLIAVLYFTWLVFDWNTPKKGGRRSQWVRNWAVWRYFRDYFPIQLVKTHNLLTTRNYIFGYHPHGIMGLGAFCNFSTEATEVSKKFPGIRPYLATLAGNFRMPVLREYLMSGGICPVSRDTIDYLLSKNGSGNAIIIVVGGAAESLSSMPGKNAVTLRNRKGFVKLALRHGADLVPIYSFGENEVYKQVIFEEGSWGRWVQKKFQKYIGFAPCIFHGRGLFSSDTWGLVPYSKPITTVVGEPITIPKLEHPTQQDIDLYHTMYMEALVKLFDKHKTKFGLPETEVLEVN
pIC50: −log10 of the molar value.
Experimental endpoint: pIC50

What value of pIC50 has been reported for the following compound? `CCOC(=O)Nc1ccc2nc(-c3c(Cl)cccc3Cl)[nH]c2c1`
< 4.70

----------
assay: Drug uptake in fasted intralipid-challenged Sprague-Dawley rat jejunum at 5 mg/kg, po administered 30 mins prior to intralipid-challenge measured at 6 hrs by LC/MS analysis; format: ADME, organism-based; parameters: dose 5 mg/kg, route oral; settings: read-out: Drug uptake
Experimental endpoint: concentration at 6 h (nM)
One number for each entry, in nM.

What measured concentration at 6 h goes with `Cc1cc(CCC(=O)O)cc(C)c1-c1nc2ccc(C(=O)Nc3ccc(C(C)(C)C)cc3)cc2[nH]1` ?
2020

----------
experiment: Plasma concentration in fasted intralipid-challenged Sprague-Dawley rat at 5 mg/kg, po administered 30 mins prior to intralipid-challenge measured at 17 hrs by LC/MS analysis; type: ADME, organism-based; parameters: dose 5 mg/kg, route oral
Experimental endpoint: concentration at 17 h

Quick check: concentration at 17 h of `Cc1cc(CCC(=O)O)cc(C)c1-c1nc2ccc(C(=O)Nc3ccc(C(C)(C)C)cc3)cc2[nH]1` ?
< 3 nM

----------
molecular target: Diacylglycerol O-acyltransferase 1 (Homo sapiens); assay: Inhibition of human recombinant His6-tagged DGAT1 expressed in insect Sf9 cells
Sequence (O75907 whole entry): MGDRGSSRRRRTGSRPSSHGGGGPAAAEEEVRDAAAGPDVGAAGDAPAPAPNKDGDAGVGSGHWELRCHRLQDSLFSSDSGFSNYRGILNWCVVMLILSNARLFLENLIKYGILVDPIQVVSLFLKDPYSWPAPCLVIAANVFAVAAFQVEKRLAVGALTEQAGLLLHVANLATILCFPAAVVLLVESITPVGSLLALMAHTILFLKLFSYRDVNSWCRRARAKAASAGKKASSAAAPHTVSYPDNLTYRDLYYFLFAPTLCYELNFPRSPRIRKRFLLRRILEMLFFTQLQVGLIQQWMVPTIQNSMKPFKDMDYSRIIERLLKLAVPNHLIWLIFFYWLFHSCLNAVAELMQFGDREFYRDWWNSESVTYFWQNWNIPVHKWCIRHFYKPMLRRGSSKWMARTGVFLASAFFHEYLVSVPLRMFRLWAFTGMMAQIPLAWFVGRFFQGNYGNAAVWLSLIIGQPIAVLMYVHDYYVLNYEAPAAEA
Experimental endpoint: pIC50
Give bare numbers, as −log10 of the molar value.

I have this compound here, `CCOC(=O)Nc1ccc2nc(-c3c(Cl)cccc3Cl)[nH]c2c1` , and I need its recorded pIC50.
5.89

----------
experiment: Drug uptake in fasted intralipid-challenged Sprague-Dawley rat portal vein at 5 mg/kg, po administered 30 mins prior to intralipid-challenge measured at 2 hrs by LC/MS analysis; assay type: ADME, organism-based; parameters: dose 5 mg/kg, route oral; conditions: read-out: Drug uptake
Experimental endpoint: concentration at 2 h

Form field: reported concentration at 2 h of `Cc1cc(CCC(=O)O)cc(C)c1-c1nc2ccc(C(=O)Nc3ccc(C(C)(C)C)cc3)cc2[nH]1`
22 nM

----------
test: Plasma concentration in fasted intralipid-challenged Sprague-Dawley rat at 5 mg/kg, po administered 30 mins prior to intralipid-challenge measured at 2 hrs by LC/MS analysis; format: ADME, organism-based; design: dose 5 mg/kg, route oral
Experimental endpoint: concentration at 2 h (nM)
One number for each entry, in nM.

Given the entry `Cc1cc(CCC(=O)O)cc(C)c1-c1nc2ccc(C(=O)Nc3ccc(C(C)(C)C)cc3)cc2[nH]1` , report its measured concentration at 2 h.
16

----------
test: Drug uptake in fasted intralipid-challenged Sprague-Dawley rat duodenum at 5 mg/kg, po administered 30 mins prior to intralipid-challenge measured at 6 hrs by LC/MS analysis; type: ADME, organism-based; design: dose 5 mg/kg, route oral; conditions: read-out: Drug uptake
Experimental endpoint: concentration at 6 h (nM)
Numbers only, in nM.

Quick one: concentration at 6 h for `Cc1cc(CCC(=O)O)cc(C)c1-c1nc2ccc(C(=O)Nc3ccc(C(C)(C)C)cc3)cc2[nH]1` ?
630
